Target: Recombinant human MASP2 enzyme (fragment corresponding to amino acids 297-686, C-terminal His Tag) (human, UniProt O00187 297-686)
Sequence (O00187 other isoform, or with tags, fused parts or gaps limits assumed): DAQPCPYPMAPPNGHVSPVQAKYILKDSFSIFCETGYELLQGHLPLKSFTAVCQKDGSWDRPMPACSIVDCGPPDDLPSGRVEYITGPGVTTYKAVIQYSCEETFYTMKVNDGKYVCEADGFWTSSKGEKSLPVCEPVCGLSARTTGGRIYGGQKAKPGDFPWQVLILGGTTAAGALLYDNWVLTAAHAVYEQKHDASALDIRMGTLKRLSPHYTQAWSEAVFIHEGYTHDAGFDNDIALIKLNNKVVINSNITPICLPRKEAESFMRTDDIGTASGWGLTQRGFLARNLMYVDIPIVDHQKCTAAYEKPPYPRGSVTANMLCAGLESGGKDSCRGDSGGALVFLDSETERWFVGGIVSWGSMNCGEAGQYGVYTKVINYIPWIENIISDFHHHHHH
Experiment: cell-based or functional assay
Numbered stars: 1 amine (or outer) side, 2 acyl side, 3 side chain; on linkers, the order of the positions; unused ones are H or OH. Bridge positions count the residues as written; N and C are the ends. Square brackets hold non-standard residues; d marks the D form. Ends that are not written are not given here. 4‑Aminomethylphenylacetic acid = O=C(Cc1ccc(CN[*:1])cc1)[*:2]; Pro(cis-4-CF3) = O=C(O)[C@@H]1C[C@H](C(F)(F)F)CN1; Oic = O=C(O)[C@@H]1C[C@@H]2CCCC[C@@H]2N1; tBuAla = CC(C)(C)C[C@H](N)C(=O)O; Pen = CC(C)(S)[C@H](N)C(=O)O; Sar = CNCC(=O)O
Measured Property: human MASP2 IC50 (nM)
The answer is to be given in nM; state only the numeric part.

Below, each entry is followed by its recorded human MASP2 IC50 result.
Binder	Measured Property	Unit Abbrev	Experimental Result
[Sar]ICSRSLP[Oic]I[Pen]IP[4‑Aminomethylphenylacetic acid]-OH (disulfide 3-11; N-terminus assumed; SMILES CC[C@H](C)[C@H](NC(=O)CNC)C(=O)N[C@H]1CSSC(C)(C)[C@@H](C(=O)N[C@H](C(=O)N2CCC[C@H]2C(=O)NCc2ccc(CC(=O)O)cc2)[C@@H](C)CC)NC(=O)[C@H]([C@@H](C)CC)NC(=O)[C@@H]2C[C@@H]3CCCC[C@@H]3N2C(=O)[C@@H]2CCCN2C(=O)[C@H](CC(C)C)NC(=O)[C@H](CO)NC(=O)[C@H](CCCNC(=N)N)NC(=O)[C@H](CO)NC1=O) [((N-Me)G)-IC+SRSLP-(Oic)-I-(Pen)+IP-(4-Aminomethylphenylacetic acid)-OH]	human MASP2 IC50	nM	61
AICSRS[tBuAla]P[Pro(cis-4-CF3)]ICIPD-OH (disulfide 3-11; N-terminus assumed; SMILES CC[C@H](C)[C@H](NC(=O)[C@H](C)N)C(=O)N[C@H]1CSSC[C@@H](C(=O)N[C@H](C(=O)N2CCC[C@H]2C(=O)N[C@@H](CC(=O)O)C(=O)O)[C@@H](C)CC)NC(=O)[C@H]([C@@H](C)CC)NC(=O)[C@@H]2C[C@H](C(F)(F)F)CN2C(=O)[C@@H]2CCCN2C(=O)[C@H](CC(C)(C)C)NC(=O)[C@H](CO)NC(=O)[C@H](CCCNC(=N)N)NC(=O)[C@H](CO)NC1=O) [AIC+SRS-((tBu)A)-P-((4-CF3)P)-IC+IPD-OH]	human MASP2 IC50	nM	1000
AICSRSLP[Oic]I[Pen]IP[βDap]-OH (disulfide 3-11; also: C-terminal Dap bonded through its side-chain amino group) [AIC+SRSLP-(Oic)-I-(Pen)+IP-(*Dap)-OH]	human MASP2 IC50	nM	210

## Task Which human MASP2 IC50 value is on record for [Sar]ICSRSLP[Oic]I[Pen]IPG[dD]-OH (disulfide 3-11; N-terminus assumed; SMILES CC[C@H](C)[C@H](NC(=O)CNC)C(=O)N[C@H]1CSSC(C)(C)[C@@H](C(=O)N[C@H](C(=O)N2CCC[C@H]2C(=O)NCC(=O)N[C@H](CC(=O)O)C(=O)O)[C@@H](C)CC)NC(=O)[C@H]([C@@H](C)CC)NC(=O)[C@@H]2C[C@@H]3CCCC[C@@H]3N2C(=O)[C@@H]2CCCN2C(=O)[C@H](CC(C)C)NC(=O)[C@H](CO)NC(=O)[C@H](CCCNC(=N)N)NC(=O)[C@H](CO)NC1=O) [((N-Me)G)-IC+SRSLP-(Oic)-I-(Pen)+IPGd-OH] ?
## Result 37
